Molecular target: Thrombin (TH) (Bos taurus)
Sequence (P00735 44-625): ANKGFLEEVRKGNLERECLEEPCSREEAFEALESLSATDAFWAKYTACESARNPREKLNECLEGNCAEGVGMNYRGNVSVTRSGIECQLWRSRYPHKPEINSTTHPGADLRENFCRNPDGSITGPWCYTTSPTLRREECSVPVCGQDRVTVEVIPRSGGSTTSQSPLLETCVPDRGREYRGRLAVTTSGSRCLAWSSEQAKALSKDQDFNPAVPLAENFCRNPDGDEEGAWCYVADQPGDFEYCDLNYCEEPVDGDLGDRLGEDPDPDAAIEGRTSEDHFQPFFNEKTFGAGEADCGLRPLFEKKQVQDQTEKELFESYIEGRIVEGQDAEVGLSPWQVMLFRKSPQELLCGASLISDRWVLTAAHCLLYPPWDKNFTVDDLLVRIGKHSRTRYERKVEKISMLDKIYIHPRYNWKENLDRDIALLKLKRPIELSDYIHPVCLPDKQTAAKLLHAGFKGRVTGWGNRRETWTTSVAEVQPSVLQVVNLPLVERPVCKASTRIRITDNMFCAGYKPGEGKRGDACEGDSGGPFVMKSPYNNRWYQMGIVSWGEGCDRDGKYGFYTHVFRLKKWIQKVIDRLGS
Type: biochemical, Cow
Conditions: TABLE 3, PNA substrates; So = 0.54 mmole/l; pH 8.4; 37° C., 10 minutes; 1.0 NIH/ml
Where a SMILES comes first, the peptide text is derived from it.
READOUT_NAME: Selectivity TH, absorbance (O.D.) at 405 nm

COMPOUND	TARGET_DESC	MEASURED
NCCCC[C@H](NC(=O)[C@H](Cc1ccccc1)NC(=O)[C@H](N)CCC(=O)OCCc1ccccc1)C(=O)Nc1ccc([N+](=O)[O-])cc1	Thrombin (TH) (Bos taurus)	0
CC(C)C[C@H](NC(=O)[C@H](N)C(C)C)C(=O)N[C@@H](CCCCN)C(=O)Nc1ccc([N+](=O)[O-])cc1 [S-2251, H-D-Val-Leu-Lys-PNA, reference compound] (HELM PEPTIDE1{[dV].L.K.[O=[N+]([O-])c1ccc(N[*:1])cc1]}$$$$V2.0)	Thrombin (TH) (Bos taurus)	0.001
NCCCC[C@H](NC(=O)[C@H](Cc1ccccc1)NC(=O)[C@H](N)CCC(=O)NCCc1ccccc1)C(=O)Nc1ccc([N+](=O)[O-])cc1 [NPN-4] (HELM PEPTIDE1{[dE].F.K.[O=[N+]([O-])c1ccc(N[*:1])cc1]}|CHEM1{[c1ccc(CCN[*:1])cc1]}$PEPTIDE1,CHEM1,1:R3-1:R1$$$V2.0)	Thrombin (TH) (Bos taurus)	0.001

Taken from patent US4605614A.
